target: second (BD2: amino acids E352-E168) bromodomain of BRD4 (Homo sapiens, UniProt O60885); construct: protocol; assay: TR-FRET bromodomain binding assay, BRD4 BD2; conditions: TR-FRET assay protocol (A-G, compound concentration range); Ki calculated from IC50, probe Kd and probe concentration; read-out: TR-FRET Binding Ki: BRD4 (BDII_E352-M457)
Reported metric: Ki (nM)

Use these answered entries as a reference point.
In [3]: df
Out[3]:
                                   compound  result_unit  recorded_result
0  Cn1nc(-c2ccccc2Oc2ccccc2)c(-c2ccnc(N)c2)cc1=O [Example 200]           nM              971
1  COC(=O)COc1cc(=O)n(C)nc1-c1ccccc1Oc1ccccc1 [Example 38]           nM             6830
2  CCS(=O)(=O)Nc1ccc(Oc2ccc(F)cc2F)c(-c2cn(C)c(=O)cc2OC2CCNCC2)c1 [Example 322]           nM             90.9
3  CN(C)c1cccc(-c2cc(=O)n(C)nc2-c2ccccc2Oc2ccccc2)c1 [Example 209]           nM             8480

I. CCOc1cc(=O)n(C)cc1-c1cc(NS(=O)(=O)c2ccc(-c3ccccc3)cc2)ccc1Oc1ccc(F)cc1F [Example 309]
II. Cn1nc(-c2ccccc2Oc2ccccc2)c(-c2ccc(NCc3ccccc3)nc2)cc1=O [Example 164]
III. Cn1cc(-c2cc(NS(C)(=O)=O)ccc2Oc2cccc(C#N)c2)ccc1=O [Example 245]
IV. Cn1nc(-c2ccccc2Oc2ccccc2)c(-c2ccc(N3CCCCC3)nc2)cc1=O [Example 184]
V. CNS(=O)(=O)c1ccc(-c2cc(=O)n(C)nc2-c2ccccc2Oc2ccccc2)cc1 [Example 159]
Let's sort these by Ki, smallest first. Go ahead? Provide the ranking by listing each label in its place in the requested order.
I, II, III, IV, V

Origin of the recorded values: patent US9561231B2
